Target: human TLR7 (Homo sapiens, UniProt Q9NYK1)
Sequence (Q9NYK1 27-1049): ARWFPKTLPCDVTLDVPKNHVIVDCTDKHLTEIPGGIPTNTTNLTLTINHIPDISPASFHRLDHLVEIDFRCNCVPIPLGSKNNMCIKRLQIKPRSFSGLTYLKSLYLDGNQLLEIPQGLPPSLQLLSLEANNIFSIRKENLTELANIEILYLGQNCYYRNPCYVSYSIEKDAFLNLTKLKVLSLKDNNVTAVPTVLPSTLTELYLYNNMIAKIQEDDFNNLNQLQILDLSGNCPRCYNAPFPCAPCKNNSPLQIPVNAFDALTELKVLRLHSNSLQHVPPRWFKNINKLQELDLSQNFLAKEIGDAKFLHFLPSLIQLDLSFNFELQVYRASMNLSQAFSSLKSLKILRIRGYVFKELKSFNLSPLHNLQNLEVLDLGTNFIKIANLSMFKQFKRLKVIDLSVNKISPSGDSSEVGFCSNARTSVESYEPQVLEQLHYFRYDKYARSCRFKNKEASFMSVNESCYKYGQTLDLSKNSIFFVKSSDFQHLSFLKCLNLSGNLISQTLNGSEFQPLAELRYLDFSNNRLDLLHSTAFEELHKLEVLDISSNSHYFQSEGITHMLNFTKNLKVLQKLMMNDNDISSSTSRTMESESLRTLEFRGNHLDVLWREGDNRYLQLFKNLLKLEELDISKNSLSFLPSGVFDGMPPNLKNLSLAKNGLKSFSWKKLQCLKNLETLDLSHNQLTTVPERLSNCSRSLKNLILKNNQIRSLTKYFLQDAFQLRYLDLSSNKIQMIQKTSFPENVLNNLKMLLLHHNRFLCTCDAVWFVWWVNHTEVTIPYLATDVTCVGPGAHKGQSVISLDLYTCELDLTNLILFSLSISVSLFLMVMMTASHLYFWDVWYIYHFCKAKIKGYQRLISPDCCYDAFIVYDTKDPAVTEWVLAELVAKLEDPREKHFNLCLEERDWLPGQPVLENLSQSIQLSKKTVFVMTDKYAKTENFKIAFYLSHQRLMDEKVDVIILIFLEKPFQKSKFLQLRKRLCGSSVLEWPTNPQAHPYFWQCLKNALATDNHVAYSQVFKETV
Experiment: Human TLR7 agonist activity assay (HEK-Blue TLR7 SEAP reporter)
Conditions: HEK-Blue TLR7 cells, 18 h treatment, average where assay performed multiple times, read-out: hTLR7 Agonism EC50
ATTRIBUTE MEASURED: EC50
Entry format: amount then unit.

Record excerpt, results attached:
[
  {
    "COMPOUND": "CCC[C@@H](CCO)Nc1nc(N)nc2cnn(Cc3ncc(C4CCCCN4)cc3OC)c12 (stereo partly drawn)",
    "EC50": "235 nM"
  },
  {
    "COMPOUND": "CCC[C@@H](CCO)Nc1nc(N)nc2cnn(Cc3ncc(C4CCN(C5CC6(COC6)C5)CC4)cc3OC)c12",
    "EC50": "14.1 nM"
  }
]

Query: Please give the measured EC50 for this compound: `CCC[C@@H](CCO)Nc1nc(N)nc2c(C)nn(Cc3ncc(C4CCN(C5CCOCC5)CC4)cc3OC)c12`
Response: 29.8 nM

Query: Same for `CCC[C@@H](CCO)Nc1nc(N)nc2cnn(Cc3nc(C4CCN(C(=O)CN(C)C)CC4)ccc3OC)c12`
Response: 402 nM

Query: Same for `CCC[C@@H](CCO)Nc1nc(N)nc2cnn(Cc3ncc(C4CCN(C5CCOCC5)CC4)cc3OC)c12`
Response: 12.8 nM

Query: Same for `CCC[C@@H](CCO)Nc1nc(N)nc2cnn(Cc3ncc(C4CCNCC4)cc3OC)c12`
Response: 189 nM

Query: Same for `CCC[C@@H](CCO)Nc1nc(N)nc2cnn(Cc3nc(C4CCN(C)CC4)ccc3OC)c12`
Response: 221 nM

Query: Same for `CCCCNc1nc(N)nc2cnn(Cc3cc(F)c(N4CCN(C(=O)CNCC(C)(C)O)CC4)cc3OC)c12`
Response: 131 nM
